ASSAYED_TARGET: Human glucocorticoid receptors (Homo sapiens, UniProt P04150)
Construct: made in house; host or cells: Sf9 insect cells, recombinant baculovirus (BAC-TO-BAC)
TEST_DETAILS: Radioligand filter binding assay, displacement of 3[H]-dexamethasone from hGR
CONDITION_SUMMARY: read-out: GR Binding (% Inhibition at 1.7 μM)
REPORTED_METRIC: inhibition at 1.7 µM (%)
Note: unit % is implicit; provide only the numeric part.

Record excerpt, results attached:
In: Which inhibition at 1.7 µM is listed for "Cc1c(NS(C)(=O)=O)cccc1N(Cc1ccccc1)Cc1ccc(Oc2ccc(CCC(=O)NCCCO)cc2)cc1" ?
Out: 94.3

In: Item: "Cc1c(NS(C)(=O)=O)cccc1N(Cc1ccccc1)Cc1ccc(Oc2cccc(OCCNC(=O)CCCC(=O)O)c2)cc1"
Out: 97.2

In: Item: "Cc1c(NS(C)(=O)=O)cccc1N(Cc1ccc(OCc2ccco2)cc1)Cc1ccc(F)cc1F"
Out: 92.8

In: Item: "Cc1c(NS(C)(=O)=O)cccc1N(Cc1ccccc1)Cc1ccc2c(c1)OCO2"
Out: 77.9

In: Item: "CCCCCCc1ccc(Oc2ccc(CN(Cc3ccc(F)cc3F)c3cccc(NS(C)(=O)=O)c3C)cc2)cc1OCC(=O)O"
Out: 94.2

More entries:
In: Which inhibition at 1.7 µM is listed for "Cc1c(NS(=O)(=O)N(C)C)cccc1N(Cc1ccccc1)Cc1ccccc1" ?
Out: 75.2

In: Item: "Cc1c(NS(C)(=O)=O)cccc1N(Cc1ccc(Oc2ccc(Cl)c(OCCCC(=O)NCCCC(=O)O)c2)cc1)Cc1ccc(F)cc1F"
Out: 96.8

----------
ASSAYED_TARGET: Human glucocorticoid receptors (Homo sapiens, UniProt P04150)
Construct: made in house; host or cells: Sf9 insect cells, recombinant baculovirus (BAC-TO-BAC)
TEST_DETAILS: Radioligand filter binding assay, displacement of 3[H]-dexamethasone from hGR
CONDITION_SUMMARY: read-out: GR Binding (% Inhibition at 1.7 μM)
REPORTED_METRIC: inhibition at 1.7 µM (%)
Note: unit % is implicit; provide only the numeric part.

In: Please tell me: inhibition at 1.7 µM of Cc1c(NS(C)(=O)=O)cccc1N(Cc1ccccc1)Cc1ccc(Oc2cccc(OC3CCC(C(=O)O)CC3)c2)cc1 (stereo not shown) , system Human glucocorticoid receptors (Homo sapiens, UniProt P04150)?
Out: 92.6

In: Item: Cc1c(NS(C)(=O)=O)cccc1N(Cc1ccccc1)Cc1ccc(Oc2cccc(OCC3CC3C(=O)O)c2)cc1 (stereo not shown)
Out: 89.6

In: Item: "Cc1c(NS(C)(=O)=O)cccc1N(Cc1ccc(Oc2ccc(Cl)c(OCC(=O)O)c2)cc1)Cc1ccc(Cl)cc1Cl"
Out: 97.4

In: Item: "CCOC(=O)CCCOc1ccc(Oc2ccc(CN(Cc3ccccc3)c3cccc(NS(C)(=O)=O)c3C)cc2)cc1"
Out: 94.9

In: Item: "Cc1c(NS(C)(=O)=O)cccc1N(Cc1ccccc1)Cc1ccc(C(=O)c2cccc(OCCc3ccccc3)c2)cc1"
Out: 88.6

In: Item: "Cc1c(NS(C)(=O)=O)cccc1N(Cc1ccc(OCc2cc3c(cc2Cl)OCO3)cc1)Cc1ccc(F)cc1F"
Out: 91.8

In: Item: "Cc1c(NS(C)(=O)=O)cccc1N(Cc1ccc(OCCc2ccccc2)cc1)Cc1ccc(F)cc1F"
Out: 93.1

In: Item: "Cc1c(NS(C)(=O)=O)cccc1N(Cc1ccc(Oc2ccc(Cl)c(OCC(=O)O)c2)cc1)Cc1ccc(Br)cc1F"
Out: 97

In: Item: "Cc1c(NS(C)(=O)=O)cccc1N(Cc1ccc(OCC=Cc2ccccc2)cc1)Cc1ccc(F)cc1F"
Out: 92.7

In: Item: "Cc1c(NS(C)(=O)=O)cccc1N(Cc1ccc(Oc2cccc(OCC(=O)O)c2)cc1)Cc1ccc(F)cc1F"
Out: 96.5

More entries:
In: Please tell me: inhibition at 1.7 µM of "Cc1c(NS(C)(=O)=O)cccc1N(Cc1ccccc1)Cc1ccc(Oc2ccc(CCC(=O)NCCCCCCO)cc2)cc1" , system Human glucocorticoid receptors (Homo sapiens, UniProt P04150)?
Out: 91.7

In: Item: "Cc1c(NS(C)(=O)=O)cccc1N(Cc1ccc(Oc2cccc(OC[C@@H]3C[C@@H](O)CC(=O)O3)c2)cc1)Cc1ccc(F)cc1F"
Out: 96

In: Item: "Cc1c(NS(C)(=O)=O)cccc1N(Cc1ccccc1)Cc1ccc(Oc2ccc(OCCCCC(=O)NCC(=O)O)cc2)cc1"
Out: 91.5

In: Item: "Cc1c(NS(C)(=O)=O)cccc1N(Cc1ccc(Oc2ccc(Cl)c(OCC(=O)O)c2)cc1)Cc1ccc(F)cc1Cl"
Out: 97.4

In: Item: "Cc1c(NS(C)(=O)=O)cccc1N(Cc1ccc(Br)cc1)Cc1ccc(Oc2ccc(Cl)c(OCC(=O)O)c2)cc1"
Out: 95.7

In: Item: "Cc1ncsc1CCOc1cccc(C(=O)c2ccc(CN(Cc3ccccc3)c3cccc(NS(C)(=O)=O)c3C)cc2)c1"
Out: 95.4

In: Item: Cc1c(NS(C)(=O)=O)cccc1N(Cc1ccccc1)Cc1ccc(Oc2cccc(OC3CCOC3)c2)cc1 (stereo not shown)
Out: 89.8

In: Item: "Cc1c(NS(C)(=O)=O)cccc1N(Cc1ccc(Oc2ccc(Cl)c(O[C@H](C)C(=O)O)c2)cc1)Cc1ccc(F)cc1F"
Out: 96.4

In: Item: "COc1ccc(Oc2ccc(CN(Cc3ccc(F)cc3F)c3cccc(NS(C)(=O)=O)c3C)cc2)cc1OC"
Out: 85.4

In: Item: "Cc1c(NS(C)(=O)=O)cccc1N(Cc1ccccc1)Cc1ccc(Oc2ccc(CCC(=O)NCCO)cc2)cc1"
Out: 94.3

----------
ASSAYED_TARGET: Human glucocorticoid receptors (Homo sapiens, UniProt P04150)
Construct: made in house; host or cells: Sf9 insect cells, recombinant baculovirus (BAC-TO-BAC)
TEST_DETAILS: Radioligand filter binding assay, displacement of 3[H]-dexamethasone from hGR
CONDITION_SUMMARY: read-out: GR Binding (% Inhibition at 1.7 μM)
Experimental: Dexamethasone hereafter referred to as dex was purchased from SIGMA. […] Human glucocorticoid receptors were extracted from Sf9 cells infected with a recombinant baculovirus transfer vector containing the cloned hGR genes. […] The concentration of hGR in the extract was measured as specific ^3[H]-dex binding with the G25-assay as described in J. Steroid Biochem. Molec. […]
Tick met if inhibition at 1.7 µM is 90% or greater. Tick not met if inhibition at 1.7 µM is less than 90%.

In: Item "CCOC(=O)/C=C/c1c(NS(C)(=O)=O)cccc1N(Cc1ccccc1)Cc1ccccc1" with inhibition at 1.7 µM of 90% or above?
Out: not met

More entries:
In: Item "Cc1c(NS(C)(=O)=O)cccc1N(Cc1ccccc1)Cc1ccc(Oc2ccc(OCCCC(=O)N[C@@H](CCC(=O)O)C(=O)O)cc2)cc1" with inhibition at 1.7 µM of 90% or above?
Out: met

In: Item: "Cc1c(NS(C)(=O)=O)cccc1N(Cc1ccccc1)Cc1ccc(Oc2ccc(OCCCC(=O)N(C)CC(=O)O)cc2)cc1"
Out: met

----------
ASSAYED_TARGET: Human glucocorticoid receptors (Homo sapiens, UniProt P04150)
Construct: made in house; host or cells: Sf9 insect cells, recombinant baculovirus (BAC-TO-BAC)
Sequence (P04150 1-777): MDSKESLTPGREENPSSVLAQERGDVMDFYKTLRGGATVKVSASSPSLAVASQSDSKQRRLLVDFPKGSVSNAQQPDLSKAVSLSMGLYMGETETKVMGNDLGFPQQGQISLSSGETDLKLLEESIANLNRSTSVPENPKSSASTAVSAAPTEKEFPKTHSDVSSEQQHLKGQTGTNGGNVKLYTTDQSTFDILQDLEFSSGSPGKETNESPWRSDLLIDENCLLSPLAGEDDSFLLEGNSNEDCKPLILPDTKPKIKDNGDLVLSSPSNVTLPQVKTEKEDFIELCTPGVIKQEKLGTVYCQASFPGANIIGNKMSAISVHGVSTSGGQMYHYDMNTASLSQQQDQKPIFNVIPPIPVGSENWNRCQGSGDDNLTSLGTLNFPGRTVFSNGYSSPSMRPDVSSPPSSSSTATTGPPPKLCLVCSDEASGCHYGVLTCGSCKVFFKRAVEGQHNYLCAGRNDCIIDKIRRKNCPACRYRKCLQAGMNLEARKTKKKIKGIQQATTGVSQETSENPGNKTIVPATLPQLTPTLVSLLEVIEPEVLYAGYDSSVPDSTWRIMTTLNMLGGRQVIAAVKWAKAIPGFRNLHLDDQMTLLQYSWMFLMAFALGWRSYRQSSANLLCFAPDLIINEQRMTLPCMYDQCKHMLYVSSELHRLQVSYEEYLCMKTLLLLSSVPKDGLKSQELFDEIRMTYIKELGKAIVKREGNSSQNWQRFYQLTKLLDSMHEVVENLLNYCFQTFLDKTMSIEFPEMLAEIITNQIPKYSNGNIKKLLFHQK
TEST_DETAILS: Radioligand filter binding assay, displacement of 3[H]-dexamethasone from hGR
CONDITION_SUMMARY: read-out: GR Binding (% Inhibition at 1.7 μM)
Below: a set of entries, each annotated with reported inhibition at 1.7 µM.
Note: unit % is implicit; provide only the numeric part.

Record excerpt, results attached:
In: Which inhibition at 1.7 µM is listed for "Cc1c(NS(C)(=O)=O)cccc1N(Cc1ccccc1)Cc1ccc(Oc2cccc(OCC(=O)NCCCN3CCCC3=O)c2)cc1" ?
Out: 96.7

In: Item: "Cc1c(NS(C)(=O)=O)cccc1N(Cc1ccccc1)Cc1ccc(Oc2ccc(OCCCC(=O)O)cc2)cc1"
Out: 96.8

In: Item: "Cc1c(NS(C)(=O)=O)cccc1N(Cc1ccccc1)Cc1ccc(Oc2ccc(CCC(=O)NCCC(=O)O)cc2)cc1"
Out: 96.2

In: Item: "COCCOc1cc(Oc2ccc(CN(Cc3ccccc3)c3cccc(NS(C)(=O)=O)c3C)cc2)ccc1CCCC(=O)O"
Out: 96.2

In: Item: "Cc1c(NS(C)(=O)=O)cccc1N(Cc1ccccc1)Cc1ccc(Oc2ccc(OCC(=O)NN)cc2)cc1"
Out: 90.6

In: Item: Cc1c(NS(C)(=O)=O)cccc1N(Cc1ccccc1)Cc1ccc(Oc2ccc(OCC(=O)NC3CCOC3=O)cc2)cc1 (centres unmarked)
Out: 89.9

Then there is this compound:
In: Which inhibition at 1.7 µM is listed for "Cc1c(NS(C)(=O)=O)cccc1N(Cc1ccc(Oc2ccc(CCC(=O)O)cc2)cc1)Cc1ccccc1F" ?
Out: 97.9

Sourced from patent US6583180B2
